Target: acetylcholine receptor
Assay: SPR, peptide at 10 uM, acetylcholine receptor immobilized on chip
VALUE_KIND: Binding affinity (RU)

binder="KETWK [5mer-639]" result="13 RU"
binder="RPSDR [5mer-942]" result="11 RU"
binder="RFCFK [5mer-601]" result="13 RU"
binder="KEHER [5mer-624]" result="22 RU"
binder="RNNVR [5mer-918]" result="12 RU"
binder="KDCFK [5mer-925]" result="25 RU"
binder="RYCAK [5mer-617]" result="28 RU"
binder="KHCIR [5mer-638]" result="33 RU"
binder="KYPWR [5mer-946]" result="32 RU"
binder="RFSHR [5mer-632]" result="33 RU"
binder="KCTNR [5mer-901]" result="30 RU"
binder="KCDDK [5mer-610]" result="16 RU"

Every entry's value here was drawn from patent US20250011363A1.
